Assay: Interaction of perfume components with cyclodextrin (CD)
Assay type: physicochemical
Details: perfume component with cyclodextrin
Excerpt: The following table illustrates the molecular weight property of some of the preferred perfume versus non-preferred perfume components. Examples of Perfume Components for CD Interaction
QUANTITY_MEASURED: CD interaction

CC(=O)OC1CCC(C(C)(C)C)CC1 (centres unmarked) [Vertenex, para-tert-butylcyclohexyl acetate] = strong
CCCCCCCCCCCCCC(=O)OC(C)C [Iso-propyl Myristate] = weak
CC1COCc2cc3c(cc21)C(C)(C)C(C)C3(C)C (centres unmarked) [Galaxolide] = weak
CC(=O)C1(C)CC2=C(CCCC2(C)C)CC1C (centres unmarked) [Iso-E Super] = weak
O=C(Cc1ccccc1)OCCc1ccccc1 [Phenyl-Ethyl-Phenyl Acetate] = weak
CCC(=O)OC1CC2CC1C1CC=CC21 (centres unmarked) [Frutene] = strong
CCCCCCC(C=O)=Cc1ccccc1 [Hexyl cinnamic Aldehyde] = weak
CCCCCCOC(=O)c1ccccc1O [Hexyl Salicylate] = weak
CCOC(=O)c1ccccc1C(=O)OCC [Diethyl Phthalate] = weak
CC(=O)/C=C/C1C(C)=CCCC1(C)C (centres unmarked) [a-ionone] = strong

Consider the following items and state reported CD interaction for each.
1. CC(C)(O)CCCC1=CCC(C=O)CC1 (centres unmarked) [Lyral]
2. CC(C=O)Cc1ccc(C(C)(C)C)cc1 (centres unmarked) [Lilial, Lilial (p-t-bucinal)]
3. CC(C=O)Cc1ccc(C(C)C)cc1 (centres unmarked) [Cymal]
4. CCCCCC1C(=O)CCC1CC(=O)OC (centres unmarked) [Methyl Dihydro Jasmonate]

A:
weak
strong
strong
weak

Consider the following items and state reported CD interaction for each.
1. CC(=O)OC1CC2CC1C1CC=CC21 (centres unmarked) [Flor Acetate]
2. CC(=O)C(C)=C(C)C(C)C(C)(C)C (centres unmarked) [Koavone]

A:
1. strong
2. strong
